Target: MDR1 (ABCB1, ATP-dependent translocase) (Homo sapiens)
Test: TP_TRANSPORTER: inhibition of Doxorubicin efflux (Doxorubicin: 50 uM, Dicapthon: 250 uM) in MDR1-expressing B16/F10 cells
Assay type: functional, cell-based
Conditions: mouse, probe Doxorubicin
value_type: inhibition at 250 µM

Fill blank: measured inhibition at 250 µM of the molecule `COP(=S)(OC)Oc1ccc([N+](=O)[O-])cc1Cl` is ____. > 80%

---

Target: MDR1 (ABCB1, ATP-dependent translocase) (Homo sapiens, UniProt P08183)
Sequence (P08183 whole entry): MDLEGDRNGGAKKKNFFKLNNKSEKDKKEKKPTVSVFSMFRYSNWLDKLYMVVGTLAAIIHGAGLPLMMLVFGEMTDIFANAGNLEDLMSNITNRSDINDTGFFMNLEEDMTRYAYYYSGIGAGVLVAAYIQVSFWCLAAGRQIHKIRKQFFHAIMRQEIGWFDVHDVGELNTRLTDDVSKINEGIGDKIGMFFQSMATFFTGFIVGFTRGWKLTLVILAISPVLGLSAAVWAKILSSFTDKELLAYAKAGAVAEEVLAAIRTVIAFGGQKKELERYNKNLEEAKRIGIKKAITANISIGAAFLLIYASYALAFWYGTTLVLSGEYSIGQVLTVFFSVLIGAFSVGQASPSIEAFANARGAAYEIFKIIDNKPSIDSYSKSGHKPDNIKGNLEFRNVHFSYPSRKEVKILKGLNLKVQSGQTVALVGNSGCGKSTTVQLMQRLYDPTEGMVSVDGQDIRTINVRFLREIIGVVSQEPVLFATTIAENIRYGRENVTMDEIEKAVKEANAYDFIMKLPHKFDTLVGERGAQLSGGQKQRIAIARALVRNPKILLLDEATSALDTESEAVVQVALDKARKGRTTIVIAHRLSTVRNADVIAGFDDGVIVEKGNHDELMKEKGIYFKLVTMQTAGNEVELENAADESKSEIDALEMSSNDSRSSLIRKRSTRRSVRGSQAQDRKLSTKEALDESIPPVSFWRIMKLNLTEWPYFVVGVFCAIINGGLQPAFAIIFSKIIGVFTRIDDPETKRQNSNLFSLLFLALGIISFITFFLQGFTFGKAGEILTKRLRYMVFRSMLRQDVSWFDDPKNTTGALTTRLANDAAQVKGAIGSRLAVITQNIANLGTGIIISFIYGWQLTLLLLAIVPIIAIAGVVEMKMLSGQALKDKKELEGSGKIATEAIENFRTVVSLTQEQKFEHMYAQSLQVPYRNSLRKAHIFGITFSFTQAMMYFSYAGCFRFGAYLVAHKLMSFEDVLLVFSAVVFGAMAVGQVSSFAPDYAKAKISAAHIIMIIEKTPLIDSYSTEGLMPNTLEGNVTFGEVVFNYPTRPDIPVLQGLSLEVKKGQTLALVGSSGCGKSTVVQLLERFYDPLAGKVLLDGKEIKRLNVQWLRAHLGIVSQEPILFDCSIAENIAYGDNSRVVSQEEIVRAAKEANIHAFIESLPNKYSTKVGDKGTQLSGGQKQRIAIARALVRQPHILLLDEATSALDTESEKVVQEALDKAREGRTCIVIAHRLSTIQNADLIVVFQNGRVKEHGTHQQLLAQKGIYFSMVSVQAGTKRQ
Assay: TP_TRANSPORTER: inhibition of Doxorubicin efflux (Doxorubicin: 50 uM, Tetrachlorohydroquinone: 250 uM) in MDR1-expressing B16/F10 cells
Format: functional, cell-based
Details: mouse, probe Doxorubicin
value_type: inhibition at 250 µM

Fill blank: measured inhibition at 250 µM of the compound Oc1c(Cl)c(Cl)c(O)c(Cl)c1Cl [TETRACHLOROHYDROQUINONE] is ____. > 80%
